# study_system: Anti-CD28 Fab (SEQ ID NOs: 696, 697)
# Sequence (VH, as listed by the source, chain 1 of 2): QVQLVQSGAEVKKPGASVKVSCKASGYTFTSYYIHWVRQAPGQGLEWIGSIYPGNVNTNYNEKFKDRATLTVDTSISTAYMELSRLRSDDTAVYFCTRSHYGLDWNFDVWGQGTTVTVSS
# Sequence (VL, as listed by the source, chain 2 of 2): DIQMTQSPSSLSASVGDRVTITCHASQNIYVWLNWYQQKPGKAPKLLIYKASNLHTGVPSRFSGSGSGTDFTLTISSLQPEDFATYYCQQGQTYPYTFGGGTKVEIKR
# procedure_details: phage ELISA; biotinylated anti-CD28 Fab on neutravidin plate, clonal phage supernatant, anti-M13 HRP detection;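 note: crude supernatants of single phage clones picked after panning were screened for binding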
quantity_name: Phage binding ELISA, Anti-CD28 Fab signal

1) YCDGHSMEYMAKCL (also called Peptide-87 library clone) [Phage-1268] = 0.8
2) YCDGHSGEYMSKCL (also called Peptide-87 library clone) [Phage-1266] = 0.82
3) YCEGHAREYMDKCL (also called Peptide-87 library clone) [Phage-1267] = 0.8
4) YCAGHAAIYMAKCL (also called Peptide-87 library clone) [Phage-1261] = 0.85
5) YCDGHDPQYIRKCI (also called Peptide-87 library clone) [Phage-1264] = 0.83

Where these numbers come from: patent US20260242478A1
